# Experiment: Solubility of ADX-102 in potential receiver fluid systems
# Format: physicochemical
# Assay Context: aqueous with cosolvent or surfactant or cyclodextrin; receiver fluid 1: Ethanol and water (50:50 v/v)

Structure Smiles String | solubility
CC(C)(O)c1nc2ccc(Cl)cc2cc1N | 23.5 mg/mL

---

# Experiment: Solubility of ADX-102 in potential receiver fluid systems
# Type: physicochemical
# Assay Context: receiver fluid systems for Franz cells, aqueous with cosolvent or surfactant or cyclodextrin; range over the investigated receiver fluid systems
Assay Readout: solubility

Molecule | Assay Readout | Result
CC(C)(O)c1nc2ccc(Cl)cc2cc1N [ADX-102] | solubility | 1.31 to 28.4 mg/mL
